targetOfAssay: His-AphA (Vibrio parahaemolyticus RIMD 2210633)
Sequence: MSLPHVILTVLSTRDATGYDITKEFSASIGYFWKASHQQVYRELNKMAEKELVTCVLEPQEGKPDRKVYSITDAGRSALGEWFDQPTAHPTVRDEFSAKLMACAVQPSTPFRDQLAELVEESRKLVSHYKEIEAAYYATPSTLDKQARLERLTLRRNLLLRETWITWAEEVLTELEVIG
experimentSummary: EMSA
condition: 1 mM MgCl2, 0.5 mM EDTA, 0.5 mM DTT, 50 mM NaCl, 10 mM Tris-HCl pH 7.5, 0.05 mg/ml poly(dI-dC), 10 ul, room temperature 30 min; footprinting in same buffer …

- sequenceContent: "AACTTCCAACCACATAATTGCGCAGCAAATAACCAGACATTTACACTACAAAAAACCCATAAAATACCAACAAATTAGAATTATTAACTACAAAATAACTCTATTGAGTATTATGTTAGTTTTTCAGGGTAATTTTGTCCTAGTATTCCACTTCATGCTTATTATTTATATACTACTTGCCTGCTGAGAGCTCATAAATCCAATCATACCTGCTCCAGCC (double strand) [aphA promoter fragment]"
  binding: "binds"
- sequenceContent: "AGTGGTTGCTTATGAATCAATCCCAGGAAAAGGCGAGAACAGCGAACCTTCAACTCGTTAACATTTTATTTTCATTTACATTTTGACTAACTCAATTGTTAATAAATTACCTAAATTGCATTTTGAAATTGCAGAATGCAATTAAGTTTTGTTTTTTGCAAAAATTTATATAGGCAATATCAGTTTATATGAGATCTTGTGCCCAAAAATAAAGCTTTGAAAATTGGCATGATTAATGCATAATACTTCTCGACC (double strand) [qrr2 promoter fragment]"
  binding: "no binding"
- sequenceContent: "CGACGCATTATTAACCAGCACTTTCGCAAATTGCATTTGCAAAATGCAATAGCATGCAAATATGCCACTTGTTACATTGCTACTAATCACTTTCTCAGCAAAAAACCAACTACTACTTTATGATTATCCATTAGCTTTCATATTTTTACCCTATACTGCTAATTAATGAGGAAAAATACCTCAGTAAATGGATTTCACGGTT (double strand) [qrr4 promoter fragment]"
  binding: "binds"
- sequenceContent: "GGATAAGTTCAAATTGGATCCAGCCTTAGCAGGCTCGGTTATTCTAACGACAGTGACAGATGTGGTTGGTTTTTTCGCCTTTTTGGGAACGGCGAGTTTAGTCATGCTCTAAAAAGTCCACTGTTTATTAATCAATCATTAGCATAATAGAGACAAATTGCATAACGCACTTGCAAATTGCAAAAACATTCAAAGTTTAAGCAACGTATGTCACAGAAACCAC (double strand) [qrr3 promoter fragment]"
  binding: "no binding"

Data credit: paper PMC3440409
